Entry source: PubChem BioAssay (NCI)

Tested on: KM12 colon
Assay: NCI tumour cell line growth inhibition, 48 h
Where a SMILES comes first, the peptide text is derived from it. The star is where a group is joined. Boc = CC(C)(C)OC(=O)*; OBn = c1ccc(CO*)cc1
TGI listing for selected compounds.
MEASURED ENDPOINT: TGI

- O=[p+]1c2ccccc2[nH]c2ccccc21: > 100 µM
- CCn1c(=O)c2c3cc(OC(C)=O)ccc3oc2c2ccc(OC(C)=O)cc21: > 100 µM
- CC(C)CC(NC(=O)C(Cc1ccccc1)NC(=O)C(Cc1ccccc1)NC(=O)OC(C)(C)C)C(=O)OCc1ccccc1 (stereo not drawn) (Boc-Phe-Phe-Leu-OBn; configuration not given here): > 100 µM
- NC(=S)N/N=C1\CCCCC1C(O)(C(F)(F)Cl)C(F)(F)Cl (stereo not given): > 10 µM
- Cc1cc(NS(=O)(=O)c2ccc(NC(=O)COC(=O)c3cccc4c(=O)c5ccccc5[nH]c34)cc2)no1: > 100 µM
